- target: NVL (Homo sapiens)
- Sequence (O15381 1-856): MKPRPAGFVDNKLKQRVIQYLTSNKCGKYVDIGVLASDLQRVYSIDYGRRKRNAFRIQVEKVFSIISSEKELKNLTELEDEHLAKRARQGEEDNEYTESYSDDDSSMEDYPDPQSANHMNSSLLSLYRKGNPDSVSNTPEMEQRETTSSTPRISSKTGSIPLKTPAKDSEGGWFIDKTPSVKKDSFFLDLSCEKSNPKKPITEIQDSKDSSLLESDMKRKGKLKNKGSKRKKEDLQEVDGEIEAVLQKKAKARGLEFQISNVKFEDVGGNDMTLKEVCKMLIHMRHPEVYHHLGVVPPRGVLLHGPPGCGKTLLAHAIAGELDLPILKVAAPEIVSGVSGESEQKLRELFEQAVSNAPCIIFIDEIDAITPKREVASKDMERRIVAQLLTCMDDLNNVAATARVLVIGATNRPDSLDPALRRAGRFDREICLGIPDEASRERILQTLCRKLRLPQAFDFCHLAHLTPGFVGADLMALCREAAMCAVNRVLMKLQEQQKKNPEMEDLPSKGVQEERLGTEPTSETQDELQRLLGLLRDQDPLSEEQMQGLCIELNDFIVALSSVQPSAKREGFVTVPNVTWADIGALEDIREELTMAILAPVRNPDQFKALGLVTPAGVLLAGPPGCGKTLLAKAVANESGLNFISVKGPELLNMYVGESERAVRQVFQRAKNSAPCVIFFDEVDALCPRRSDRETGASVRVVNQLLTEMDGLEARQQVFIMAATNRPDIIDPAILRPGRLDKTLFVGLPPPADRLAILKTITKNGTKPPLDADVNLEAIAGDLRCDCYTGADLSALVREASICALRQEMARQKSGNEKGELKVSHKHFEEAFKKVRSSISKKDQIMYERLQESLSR
- assay_summary: Viability of NVL^AID/AID cells relying on ectopic human NVL (Ph-IAA)
- experimental_setup: endogenous NVL degraded with Ph-IAA; read-out: IC50, cells expressing ectopic human NVL
observed_property: IC50 (nM)
Answers are plain numbers, in nM.

IC50 reported for this compound `CC#CCN1C(=O)c2ccc(F)cc2Sc2cc(NC(=O)c3ccc4oc(=O)n(C)c4c3)ccc21` : 51

----------
- Tested on: HCT116 cells
- assay_summary: Cell viability assay (CellTiter-Glo, 72 hours) in HCT116 human colorectal cancer cells
- Format: cell-based
- experimental_setup: Table 7; cell viability assay, CellTiter-Glo, 72 hours; scaffold drawing 42 with R^2, R^3, X/Y, Z; read-out: Activity
- Description: Cell culture: The HCT116 cell line was obtained from ATCC and cultured in Dulbecco's Modified Eagle's Medium (DMEM)-high glucose (Sigma Aldrich #D5796) supplemented with 10% fetal bovine serum (FBS) (Sigma-Aldrich #F2442) and 2 mM L-Glutamine (Sigma Aldrich #G7513). Cells were cultured at 37° C. in 5% CO2. The identity of all cell lines was confirmed by short tandem repeat (STR) analysis and confirmed to be mycoplasma-free using a PCR based assay (Genatlantis). […]
Kindly supply the reported IC50 values for the records listed here.

CCCCCCN1C(=O)c2ccccc2Sc2cc(NC(=O)c3ccoc3)ccc21 < 500 nM
O=C(Nc1ccc2c(c1)Sc1ccccc1C(=O)N2CCO)c1ccoc1 1000 to 5000 nM
C=CCN1C(=O)c2ccc(F)cc2Sc2cc(NC(=O)c3ccc4scnc4c3)ccc21 < 500 nM
COCCN1C(=O)c2ccccc2Sc2cc(NC(=O)c3ccc4oc(C)nc4c3)ccc21 < 500 nM
COCCN1C(=O)c2ccccc2Sc2cc(NC(=O)c3ccc(OC)c(F)c3)ccc21 500 to 1000 nM
COCCN1C(=O)c2ccccc2Sc2cc(NC(=O)c3ccc4ccccc4c3)ccc21 1000 to 5000 nM
COCCN1C(=O)c2ccccc2Sc2cc(NC(=O)c3ccc4nccn4c3)ccc21 1000 to 5000 nM

IC50 reported for this molecule `COCCN1C(=O)c2ccccc2Sc2cc(NC(=O)c3ccn4ccnc4c3)ccc21` : 1000 to 5000 nM

----------
Kindly supply the reported IC50 values for the records listed here.
- Test system: HCT116 cells
- assay_summary: Cell viability assay (CellTiter-Glo, 72 hours) in HCT116 human colorectal cancer cells
- Type: cell-based
- experimental_setup: Table 7; cell viability assay, CellTiter-Glo, 72 hours; scaffold drawing 42 with R^2, R^3, X/Y, Z; read-out: Activity

Known IC50 results, listed for orientation:
COCCN1C(=O)c2ccc(F)cc2Sc2cc(NC(=O)c3ccoc3)ccc21 < 500 nM
COCCN1C(=O)c2ccccc2Sc2cc(NC(=O)c3ccncn3)ccc21 1000 to 5000 nM
C#CCOCCN1C(=O)c2ccccc2Sc2cc(NC(=O)c3ccc(OC)cc3)ccc21 < 500 nM
COCCN1C(=O)c2ccccc2Sc2cc(NC(=O)c3ncccn3)ccc21 1000 to 5000 nM
COCCN1C(=O)c2ccccc2Sc2cc(NC(=O)c3ccoc3C)ccc21 500 to 1000 nM

Lab note: each compound below needs its IC50 filled in.
1. C#Cc1ccc(C(=O)Nc2ccc3c(c2)Sc2ccccc2C(=O)N3CCOC)cn1
2. COCCN1C(=O)c2ccccc2Sc2cc(NC(=O)C3CCOCC3)ccc21

**A:**
["1000 to 5000 nM", "1000 to 5000 nM"]

----------
- Tested on: HCT116 cells
- assay_summary: Cell viability assay (CellTiter-Glo, 72 hours) in HCT116 human colorectal cancer cells
- Type: cell-based
- experimental_setup: Homo sapiens, HCT-116; Table 4; HCT116, 72 hours; read-out: Activity
pIC50: −log10 of the molar value.
Kindly supply the reported pIC50 values for the records listed here.

CC#CCN1C(=O)c2ccccc2Sc2cc(NC(=S)Nc3ccc(OC)nc3)ccc21 > 6.30

From here, focus on the item given below.
pIC50 reported for this molecule `CC#CCN1C(=O)c2ccccc2Sc2cc(NC(=S)Nc3ccc(OC(F)F)cc3)ccc21` : > 6.30

----------
- System: HCT116 cells
- assay_summary: Cell viability assay (CellTiter-Glo, 72 hours) in HCT116 human colorectal cancer cells
- Type: cell-based
- experimental_setup: Table 8; analogs of scaffold drawing 43 defined by R^2, R^3, X/Y, W; read-out: Activity (IC50 class, cell viability assay)
observed_property: IC50

Known IC50 results, listed for orientation:
molecule	IC50
CC#CCN1C(=O)c2ccccc2Sc2cc(NC(=O)C3CC4(CC(=O)C4)C3)cnc21	< 0.5 µM
CC#CCN1C(=O)c2ccc(Cl)cc2Sc2cc(NC(=O)C(C)CCOC)ccc21 (centres unmarked) [—CH2CCMe; MeO(CH2)2CHMe-; CCI/CH; CH]	< 0.5 µM

Lab note: each molecule below needs its IC50 filled in.
1. C#Cc1ccc(C(=O)Nc2ccc3c(c2)Sc2ccccc2C(=O)N3CC#CC)cn1 [—CH2CCMe; 6-(HCC)pyrid-3-yl; CH/CH; CH]
2. CC#CCN1C(=O)c2cc(F)ccc2Sc2cc(NC(=O)[C@@H]3C[C@H]3CO)ccc21 (relative stereo) [—CH2CCMe; trans-2-HOCH2-cPr; CH/CF; CH]
3. CC#CCN1C(=O)c2ccc(F)cc2Sc2cc(NC(=O)[C@@H]3C[C@H]3COC)cnc21 (relative stereo) [—CH2CCMe; trans-2-MeOCH2-cPr; CF/CH; N]
4. C#CCN1C(=O)c2cc(F)ccc2Sc2cc(NC(=O)[C@H]3C[C@H](OC)C3)ccc21 [—CH2CCH; trans-3-MeOcBu; CH/CF; CH]
5. CC12CC(C(=O)Nc3cnc4c(c3)Sc3ccccc3C(=O)N4CC#CC3CC3)(C1)C2

**A:**
["< 0.5 µM", "< 0.5 µM", "< 0.5 µM", "< 0.5 µM", "< 0.5 µM"]

Lab note: each molecule below needs its IC50 filled in.
1. CC#CCN1C(=O)c2ccccc2Sc2cc(NC(=O)C(C)CCOC)ccc21 (centres unmarked) [—CH2CCMe; MeO(CH2)2CHMe-; CH/CH; CH]
2. O=C(CC1COC1)Nc1cnc2c(c1)Sc1ccccc1C(=O)N2CC#CC1CC1 [—CH2CC^cPr; (oxetan-3-yl)CH2; CH/CH; N]
3. CC#CCN1C(=O)c2ccc(C#N)cc2Sc2cc(NC(=O)[C@@H]3C[C@H]3COC)ccc21 (relative stereo) [—CH2CCMe; trans-2-MeOCH2-cPr; CCN/CH; CH]

**A:**
< 0.5 µM
< 0.5 µM
< 0.5 µM

----------
- System: HCT116 cells
- assay_summary: Cell viability assay (CellTiter-Glo, 72 hours) in HCT116 human colorectal cancer cells
- Assay type: cell-based
- experimental_setup: Homo sapiens, HCT-116; Table 1; HCT116, 72 hours; read-out: Activity
Kindly supply the reported IC50 values for the records listed here.

CC#CCN1C(=O)c2ccccc2Sc2cc(NC(=O)N3CCC3)ccc21 < 500 nM

IC50 reported for this compound `C#CCOCCN1C(=O)c2ccccc2Sc2cc(NC(=O)N3CCC3)ccc21` : < 500 nM
